Biological target: thrombin (Bos taurus, UniProt P00735)
Construct: purchased Mochida Pharmaceutical Co., Ltd
Experiment: fibrinogen coagulation time (thrombin added to bovine fibrinogen solution)
Format: biochemical
Settings: thrombin 5 units/ml, borate saline buffer pH 7.4, 25° C, normal coagulation time 50-55 seconds prolonged to 100-110 seconds
Method: The measurement of the fibrinogen coagulation time was conducted as follows: Immediately after mixing, the reaction mixture was transferred from the ice bath to a bath maintained at 25° C. Coagulation times were taken as the period between the time of transference to the 25° C bath and the time of the first appearance of fibrin threads. […]
readout.name: Concentration required to prolong the coagulation time by a factor of two (µM)

{"molecule": "CCCCCN(C(=O)[C@H](CCCNC(=N)N)NS(=O)(=O)c1ccc2cc(OC)c(OC)cc2c1)[C@@H](C)C(=O)O [compound 4]", "quantitative.readout": 2.0}
{"molecule": "COc1cc2ccc(S(=O)(=O)N[C@@H](CCCNC(=N)N)C(=O)N(Cc3ccccc3)[C@@H](C)C(=O)O)cc2cc1OC [compound 6]", "quantitative.readout": 2.5}
{"molecule": "COCCN(C(=O)[C@H](CCCNC(=N)N)NS(=O)(=O)c1ccc2cc(OC)c(OC)cc2c1)[C@@H](C)C(=O)O [compound 15]", "quantitative.readout": 5}
{"molecule": "COc1cc2ccc(S(=O)(=O)N[C@@H](CCCNC(=N)N)C(=O)N(C)[C@@H](Cc3ccccc3)C(=O)O)cc2cc1OC [compound 18]", "quantitative.readout": 2}
{"molecule": "CCC[C@H](NC(=O)[C@H](CCCNC(=N)N)NS(=O)(=O)c1ccc2cc(OC)c(OC)cc2c1)C(=O)O [compound 21]", "quantitative.readout": 15}

A = COc1ccc2ccc(S(=O)(=O)N[C@@H](CCCNC(=N)N)C(=O)N(C)[C@@H](Cc3ccccc3)C(=O)O)cc2c1 [compound 20]
B = COc1cc2ccc(S(=O)(=O)N[C@@H](CCCNC(=N)N)C(=O)N(CCc3ccccc3)[C@@H](C)C(=O)O)cc2cc1OC [compound 8]
Which shows the larger Concentration required to prolong the coagulation time by a factor of two value: A or B ? Please reply using the label of the selected record.
A
